Measured IC50, reporter cell assay accompanies every entry in the list below.
target.under.test: hGARP-proTGFβ1 presented on cells (human, UniProt P01137 30-390; Q14392 20-662)
Sequence (P01137 30-390 limits assumed, chain 1 of 2): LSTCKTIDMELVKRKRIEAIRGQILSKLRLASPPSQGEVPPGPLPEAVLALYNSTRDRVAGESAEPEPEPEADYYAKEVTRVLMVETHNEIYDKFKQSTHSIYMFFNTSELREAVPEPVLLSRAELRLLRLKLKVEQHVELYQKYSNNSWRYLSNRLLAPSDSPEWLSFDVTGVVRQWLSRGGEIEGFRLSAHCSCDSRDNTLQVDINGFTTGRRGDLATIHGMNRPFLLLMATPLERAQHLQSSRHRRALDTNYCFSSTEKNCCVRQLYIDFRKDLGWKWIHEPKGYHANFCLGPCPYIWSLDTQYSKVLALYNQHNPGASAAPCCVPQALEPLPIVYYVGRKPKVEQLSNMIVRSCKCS
Sequence (Q14392 20-662 limits assumed, chain 2 of 2): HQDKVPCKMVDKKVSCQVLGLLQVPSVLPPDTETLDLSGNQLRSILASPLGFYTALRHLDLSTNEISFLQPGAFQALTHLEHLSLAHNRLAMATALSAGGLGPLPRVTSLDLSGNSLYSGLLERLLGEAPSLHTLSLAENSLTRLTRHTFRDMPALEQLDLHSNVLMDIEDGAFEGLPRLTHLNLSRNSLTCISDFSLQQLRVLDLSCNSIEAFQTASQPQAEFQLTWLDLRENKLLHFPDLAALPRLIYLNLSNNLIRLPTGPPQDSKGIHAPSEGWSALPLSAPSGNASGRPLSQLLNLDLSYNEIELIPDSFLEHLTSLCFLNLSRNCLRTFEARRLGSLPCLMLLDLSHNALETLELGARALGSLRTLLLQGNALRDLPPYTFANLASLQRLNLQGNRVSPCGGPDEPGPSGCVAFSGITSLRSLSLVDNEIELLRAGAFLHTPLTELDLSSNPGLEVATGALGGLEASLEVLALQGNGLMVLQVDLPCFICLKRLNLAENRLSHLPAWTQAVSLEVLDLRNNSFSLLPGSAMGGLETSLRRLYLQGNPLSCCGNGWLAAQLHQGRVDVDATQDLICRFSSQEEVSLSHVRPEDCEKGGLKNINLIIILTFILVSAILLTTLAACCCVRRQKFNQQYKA
assay.overview: cell-based or functional assay

binder	IC50, reporter cell assay / nM
Ab4 (antibody, IgG4, V domains shown, parent of Ab6) VH: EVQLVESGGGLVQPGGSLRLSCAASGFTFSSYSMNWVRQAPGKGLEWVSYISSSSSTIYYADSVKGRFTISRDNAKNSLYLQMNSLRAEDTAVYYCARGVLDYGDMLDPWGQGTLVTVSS VL: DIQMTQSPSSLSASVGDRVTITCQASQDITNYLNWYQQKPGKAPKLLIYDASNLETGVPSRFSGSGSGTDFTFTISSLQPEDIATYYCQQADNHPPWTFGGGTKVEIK	0.822
Ab33 (antibody, IgG4, V domains shown) VH: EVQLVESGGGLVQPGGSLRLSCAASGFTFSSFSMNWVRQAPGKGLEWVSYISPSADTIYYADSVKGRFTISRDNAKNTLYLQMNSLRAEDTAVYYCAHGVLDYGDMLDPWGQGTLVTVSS VL: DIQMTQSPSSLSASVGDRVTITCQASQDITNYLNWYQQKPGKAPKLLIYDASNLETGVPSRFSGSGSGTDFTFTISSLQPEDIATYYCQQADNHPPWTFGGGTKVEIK	0.198
Ab20 (antibody, IgG4, V domains shown) VH: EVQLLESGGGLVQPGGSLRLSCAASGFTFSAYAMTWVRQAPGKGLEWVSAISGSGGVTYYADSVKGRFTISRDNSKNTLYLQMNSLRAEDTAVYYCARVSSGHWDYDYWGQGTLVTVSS VL: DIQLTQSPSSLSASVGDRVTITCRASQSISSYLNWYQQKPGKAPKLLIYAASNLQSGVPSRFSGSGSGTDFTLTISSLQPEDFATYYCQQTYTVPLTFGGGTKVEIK	0.387
Ab29 (antibody, IgG4, V domains shown) VH: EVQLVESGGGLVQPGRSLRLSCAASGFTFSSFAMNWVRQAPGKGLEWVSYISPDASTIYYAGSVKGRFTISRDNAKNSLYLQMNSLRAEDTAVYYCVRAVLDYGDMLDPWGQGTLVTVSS VL: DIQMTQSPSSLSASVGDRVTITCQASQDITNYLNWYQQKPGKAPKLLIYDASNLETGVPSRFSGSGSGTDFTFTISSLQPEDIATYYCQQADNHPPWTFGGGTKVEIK	0.264
Ab6 (antibody, V domains shown) VH: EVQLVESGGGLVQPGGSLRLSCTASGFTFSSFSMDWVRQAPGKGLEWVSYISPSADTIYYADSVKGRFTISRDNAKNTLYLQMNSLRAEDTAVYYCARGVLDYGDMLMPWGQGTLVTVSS VL: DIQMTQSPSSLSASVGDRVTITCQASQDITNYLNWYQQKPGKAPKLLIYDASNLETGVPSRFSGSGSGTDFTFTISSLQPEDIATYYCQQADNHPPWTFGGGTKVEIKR	0.324
Ab1 (antibody, V domains shown) VH: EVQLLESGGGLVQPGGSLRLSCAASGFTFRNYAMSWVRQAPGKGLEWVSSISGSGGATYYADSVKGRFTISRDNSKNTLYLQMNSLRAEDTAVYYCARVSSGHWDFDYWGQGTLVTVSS VL: DIQLTQSPSSLSASVGDRVTITCQASQDISNFLNWYQQKPGKAPKLLIYDASNLETGVPSRFSGSGSGTDFTFTISSLQPEDIATYYCQQVFNPPLTFGGGTKVEIK	3.71
Ab26 (antibody, IgG4, V domains shown) VH: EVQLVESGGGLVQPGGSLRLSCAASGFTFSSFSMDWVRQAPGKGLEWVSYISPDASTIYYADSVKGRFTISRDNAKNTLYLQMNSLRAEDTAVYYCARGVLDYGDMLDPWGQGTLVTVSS VL: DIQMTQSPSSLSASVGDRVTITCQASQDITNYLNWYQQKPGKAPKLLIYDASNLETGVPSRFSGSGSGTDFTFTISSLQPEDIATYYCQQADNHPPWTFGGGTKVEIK	0.262
